Reference for the values: a melting point compilation (Tetko et al.; mined from patent text by program, amines drawn as free bases though some values may be those of a salt)

This listing pairs compounds with measured melting point.

{"compound": "O=C(O)C(CSc1nc2ccccc2[nH]1)CS(=O)(=O)c1ccc(-c2ccc(Cl)cc2)cc1 (stereo not drawn)", "melting point": "176 to 179 °C"}
{"compound": "CC(=O)OC1CCC2(C)C(CCC3C2C(=O)CC2(C)C3CCC23OCCO3)C1 (stereo not drawn)", "melting point": "116 to 123 °C"}
{"compound": "Cc1c(NC(=O)c2ccc(-c3ccc4c(c3)OCCO4)cc2)ccc2cc(CN3CCCC3)cnc12", "melting point": "187 to 188 °C"}
{"compound": "CS(=O)c1ccc(Nc2ccn(-c3ccccc3)n2)cc1 (stereo not drawn)", "melting point": "123 to 124 °C"}
{"compound": "CC(=O)OCCCC(=C(c1ccccc1)c1ccccc1)c1ccccc1", "melting point": "80 to 81 °C"}
{"compound": "Fc1ccccc1COc1nn(Cc2ccccc2F)c2ncccc12", "melting point": "57 to 58 °C"}
{"compound": "NC(=O)c1ccc2nc3ccsc3c(=O)n2c1", "melting point": "319 to 320 °C"}
{"compound": "CCNC(=O)c1cc([Si](C)(C)C)sc1[Si](C)(C)C", "melting point": "106 to 111 °C"}
